Measured AUC(0-t) by item
assay: Pharmacokinetic test in mice; type: in vivo; conditions: mouse; male ICR mice, intravenous administration (2.5 mg/kg), plasma
I only need the number, in ng·h/mL, no unit after it.

                               entry_smiles  readout_label  unit_name  reading
0  O=C(N[C@H]1CC[C@H](COc2coc(CN3Cc4ccc(C(F)(F)F)cc4C3)cc2=O)CC1)C1CC1       AUC(0-t)    ng·h/mL     6700
1  O=C(N[C@H]1CC[C@H](/C=C/c2coc(CN3Cc4ccc(C(F)(F)F)cc4C3)cc2=O)CC1)C1CC1       AUC(0-t)    ng·h/mL     6080
2  O=C(N[C@H]1CC[C@H](/C=C/c2coc(CN3Cc4ccc(C(F)(F)F)cc4C3)cc2=O)CC1)C1CC(F)(F)C1       AUC(0-t)    ng·h/mL     8550

// switching to the query compound
Input O=C(N[C@H]1CC[C@H](/C=C/c2coc(CN3Cc4ccc(C(F)(F)F)cc4C3)cc2=O)CC1)[C@@H]1CC1(F)F . Output AUC(0-t): 8460
